# ASSAY_PROTOCOL: Inhibition of trypsin by classical double reciprocal plot
METRIC: pKi
Expect pKi as a plain number equal to -log10 of the molar concentration.

Name the reported pKi value associated with the compound O=C(O)c1ccc(C(=O)O)c2c1c(C(=O)O)c1cccnc1[n+]2C(=O)O
3.98
